# Tested on: Caspase 3
# ASSAY OVERVIEW: Caspase 3 detection assay in SJSA1 cells
# Type: cell-based
# EXPERIMENTAL CONTEXT: 3 μM, SJSA1, 48 h, Caspase 3 activation over DMSO-treated cells
Bridge positions count the residues as written; N and C are the ends. Square brackets hold non-standard residues; d marks the D form. Peptide text beside a SMILES is read from it. Phe(3,4-F2) = N[C@@H](Cc1ccc(F)c(F)c1)C(=O)O; R8 = C=CCCCCCC[C@@](C)(N)C(=O)O; Cba = N[C@@H](CC1CCC1)C(=O)O; S5 = C=CCCC[C@](C)(N)C(=O)O; Nle = CCCC[C@H](N)C(=O)O
MEASURED METRIC: caspase 3 μM
Reply with just the number.

These solved cases illustrate the format of a correct answer.
CC(=O)N[C@@H](CC(C)C)C(=O)N[C@H](C(=O)N[C@@H](Cc1ccccc1)C(=O)N[C@]1(C)CCCCCCC=CCCC[C@@](C)(C(=O)N[C@@H](CO)C(=O)NC(C)(C)C(=O)N[C@@H](C)C(=O)N[C@@H](C)C(N)=O)NC(=O)[C@H](CC(C)C)NC(=O)[C@H](CCC(N)=O)NC(=O)[C@H](C)NC(=O)[C@H](Cc2c[nH]c3ccccc23)NC(=O)[C@H](Cc2ccc(O)cc2)NC(=O)[C@H](C)NC1=O)[C@@H](C)O (single isomer, unassigned) | 1
CC(=O)N[C@@H](CC(C)C)C(=O)N[C@H](C(=O)N[C@@H](Cc1ccccc1)C(=O)N[C@]1(C)CCCCCCC=CCCC[C@@](C)(C(=O)N[C@@H](C)C(=O)N[C@H](C(=O)NCC(N)=O)C(C)C)NC(=O)[C@H](CC(C)C)NC(=O)[C@H](CCC(N)=O)NC(=O)[C@H](C)NC(=O)[C@H](Cc2c[nH]c3ccccc23)NC(=O)[C@H](Cc2ccc(O)cc2)NC(=O)[C@H](C)NC1=O)[C@@H](C)O (single isomer, unassigned) | 4

Exercise: Query: caspase 3 μM; subject: CCCC[C@H](NC(=O)[C@H](C)NC(=O)[C@H](CO)NC(=O)[C@]1(C)CCCC=CCCCCCC[C@@](C)(NC(=O)[C@H](Cc2ccc(F)c(F)c2)NC(=O)[C@@H](NC(=O)[C@H](CC(C)C)NC(C)=O)[C@@H](C)O)C(=O)N[C@@H](CCC(=O)O)C(=O)N[C@@H](Cc2ccc(O)cc2)C(=O)N[C@@H](Cc2c[nH]c3ccccc23)C(=O)N[C@@H](C)C(=O)N[C@@H](CCC(N)=O)C(=O)N[C@@H](CC2CCC2)C(=O)N1)C(=O)N[C@@H](C)C(N)=O [compound 243] (Ac-LT[Phe(3,4-F2)][R8]EYWAQ[Cba][S5]SA[Nle]A-NH2; staple 4-11)
Key: 2

Exercise: Now give it for "CC(=O)N[C@@H](CC(C)C)C(=O)N[C@H](C(=O)N[C@@H](Cc1ccccc1)C(=O)N[C@]1(C)CCCCCC/C=C/CCC[C@@](C)(C(=O)N[C@@H](C)C(=O)N[C@@H](C)C(=O)N[C@@H](C)C(=O)N[C@@H](C)C(=O)N[C@@H](C)C(=O)N[C@H](C)C(N)=O)NC(=O)[C@H](CC2CCC2)NC(=O)[C@H](CCC(N)=O)NC(=O)[C@H](C)NC(=O)[C@H](Cc2c[nH]c3ccccc23)NC(=O)[C@H](Cc2ccc(C(=O)O)cc2)NC(=O)[C@H](CCC(=O)O)NC1=O)[C@@H](C)O" too.
Key: 11

---

# Tested on: Caspase 3
# ASSAY OVERVIEW: Caspase 3 detection assay in SJSA1 cells
# Format: cell-based
# EXPERIMENTAL CONTEXT: 3 μM, SJSA1, 48 h, Caspase 3 activation over DMSO-treated cells
Bridge positions count the residues as written; N and C are the ends. Square brackets hold non-standard residues; d marks the D form. Peptide text beside a SMILES is read from it. R8 = C=CCCCCCC[C@@](C)(N)C(=O)O; Cba = N[C@@H](CC1CCC1)C(=O)O; S5 = C=CCCC[C@](C)(N)C(=O)O
Classification field: label 1 = caspase 3 μM at or over 5; label 0 = caspase 3 μM under 5.

See these solved cases before continuing.
CC[C@H](C)[C@H](NC(=O)[C@H](C)NC(=O)[C@H](C)NC(=O)[C@]1(C)CCCC=CCCCCCC[C@@](C)(NC(=O)[C@H](Cc2ccccc2)NC(=O)[C@@H](NC(=O)[C@H](CC(C)C)NC(C)=O)[C@@H](C)O)C(=O)N[C@@H](CCC(=O)O)C(=O)N[C@@H](Cc2ccc(O)cc2)C(=O)N[C@@H](Cc2c[nH]c3ccccc23)C(=O)N[C@@H](C)C(=O)N[C@@H](CCC(N)=O)C(=O)N[C@@H](CC2CCC2)C(=O)N1)C(=O)N[C@H](C)C(N)=O [compound 247] (Ac-LTF[R8]EYWAQ[Cba][S5]AAI[dA]-NH2; staple 4-11) | label 0
CC(=O)N[C@@H](CC(C)C)C(=O)N[C@H](C(=O)N[C@@H](Cc1ccccc1)C(=O)N[C@]1(C)CCCCCCC=CCCC[C@@](C)(C(=O)N[C@@H](C)C(=O)N[C@@H](Cc2c[nH]cn2)C(=O)N[C@@H](Cc2ccccc2)C(=O)N[C@@H](C)C(N)=O)NC(=O)[C@H](CC(C)C)NC(=O)[C@H](C)NC(=O)[C@H](C)NC(=O)[C@H](Cc2c[nH]c3ccccc23)NC(=O)[C@H](Cc2ccc(O)cc2)NC(=O)[C@H](C)NC1=O)[C@@H](C)O [compound 204] (Ac-LTF[R8]AYWAAL[S5]AHFA-NH2; staple 4-11) | label 0
CC(=O)N[C@@H](CCC(=O)O)C(=O)N[C@H](C(=O)N[C@@H](Cc1ccccc1)C(=O)N[C@]1(C)CCCCCCC=CCCC[C@@](C)(C(=O)N[C@@H](C)C(=O)N[C@@H](C)C(=O)N[C@@H](C)C(=O)N[C@@H](C)C(=O)N[C@@H](C)C(=O)N[C@H](C)C(N)=O)NC(=O)[C@H](CC(C)C)NC(=O)[C@H](CCC(N)=O)NC(=O)[C@H](C)NC(=O)[C@H](Cc2c[nH]c3ccccc23)NC(=O)[C@H](Cc2ccc(O)cc2)NC(=O)[C@H](CCC(=O)O)NC1=O)[C@@H](C)O (single isomer, unassigned) | label 1
CC(=O)N[C@@H](CC(C)C)C(=O)N[C@H](C(=O)N[C@@H](Cc1ccccc1)C(=O)N[C@]1(C)CCCCCCC=CCCC[C@@](C)(C(=O)N[C@@H](C)C(=O)N[C@@H](C)C(=O)N[C@@H](C)C(=O)N[C@@H](C)C(=O)N[C@@H](C)C(=O)N[C@@H](C)C(=O)N[C@H](C)C(N)=O)NC(=O)[C@H](CC(C)C)NC(=O)[C@H](CCC(N)=O)NC(=O)[C@H](C)NC(=O)[C@H](Cc2c[nH]c3ccccc23)NC(=O)[C@H](Cc2ccc(O)cc2)NC(=O)[C@H](C)NC1=O)[C@@H](C)O (single isomer, unassigned) [compound 316] | label 1
CC(=O)N[C@@H](CC(C)C)C(=O)N[C@H](C(=O)N[C@@H](Cc1ccccc1)C(=O)N[C@]1(C)CCCCCCC=CCCC[C@@](C)(C(=O)N[C@@H](C)C(=O)N[C@@H](C)C(=O)N[C@@H](C)C(=O)N[C@@H](C)C(=O)N[C@@H](C)C(=O)N[C@@H](C)C(=O)N[C@H](C)C(N)=O)NC(=O)[C@H](CC(C)C)NC(=O)[C@H](CCC(N)=O)NC(=O)[C@H](C)NC(=O)[C@H](Cc2c[nH]c3ccccc23)NC(=O)[C@H](Cc2ccc(O)cc2)NC(=O)[C@H](C)NC1=O)[C@@H](C)O (single isomer, unassigned) [compound 317] | label 1
CC(=O)N[C@@H](CC(C)C)C(=O)N[C@H](C(=O)N[C@@H](Cc1ccccc1)C(=O)N[C@]1(C)CCCCCCC=CCCC[C@@](C)(C(=O)N[C@@H](CO)C(=O)N[C@@H](C)C(=O)N[C@@H](C)C(N)=O)NC(=O)[C@H](CC(C)C)NC(=O)[C@H](C)NC(=O)[C@H](C)NC(=O)[C@H](Cc2c[nH]c3ccccc23)NC(=O)[C@H](Cc2c[nH]cn2)NC(=O)[C@H](C)NC1=O)[C@@H](C)O [compound 197] (Ac-LTF[R8]AHWAAL[S5]SAA-NH2; staple 4-11) | label 0

Turning now to a further molecule:
Exercise: Has CC(=O)N[C@@H](CC(C)C)C(=O)N[C@H](C(=O)N[C@@H](Cc1ccccc1)C(=O)N[C@]1(C)CCCCCCC=CCCC[C@@](C)(C(=O)N[C@@H](CO)C(=O)N[C@@H](C)C(=O)N[C@@H](C)C(N)=O)NC(=O)[C@H](CC2CCC2)NC(=O)[C@H](CCC(N)=O)NC(=O)[C@H](C)NC(=O)[C@H](Cc2c[nH]c3ccccc23)NC(=O)[C@H](Cc2ccc(O)cc2)NC(=O)[C@H](CCC(=O)O)NC1=O)[C@@H](C)O (single isomer, unassigned) a recorded caspase 3 μM greater than or equal to 5?
Key: label 1
